- System: Cf1 male mice
- test-protocol: Writhing reflex, 0.6% acetic acid
- Assay type: in vivo
- measurement-conditions: Table XIV; unit inferred; unit assumed
Counter-ions that a name gives are not always drawn.
Writhing Reflex Mice by entry:
Response body: numeric value in %, unit text excluded.

Here is how some molecules turned out for Writhing Reflex Mice.
molecule="C[NH+](C)[BH2-]C(=O)O [Compound 23, Dimethylamine-carboxyborane, sodium salt]" numeric_readout=70.4
molecule="C[N+](C)(C)[BH2-]C(=O)[O-].C[N+](C)(C)[BH2-]C(=O)[O-].NCCN.NCCN.[Cl-].[Co+3] [Compound 27]" numeric_readout=66.2

QUERY: I am curious: what Writhing Reflex Mice value has been reported for CC#N.CO.C[N+](C)(C)[BH2-]C(=O)[O-].C[N+](C)(C)[BH2-]C(=O)[O-].C[N+](C)(C)[BH2-]C(=O)[O-].C[N+](C)(C)[BH2-]C(=O)[O-].C[N+](C)(C)[BH2-]C(=O)[O-].C[N+](C)(C)[BH2-]C(=O)[O-].O.O=[N+]([O-])[O-].[Cr+3].[Cr+3].[Cr+3].[O-2] [Compound 26] ?
RESULT: 85.4

----------
- target-entity: Acid phosphatase
- test-protocol: Mouse hepatic lysosomal acid phosphatase activity
- Assay type: biochemical
- measurement-conditions: Table XV; mouse hepatic, 60 min incubation
Counter-ions that a name gives are not always drawn.
quantity-measured: pIC50
Give only the number. pIC50 is defined as minus log10 of concentration in molar units.

Please review the entries below; each comes with its answer.
compound=BC(=O)O numeric_readout=5.40
compound=CC#N.CO.CO.CO.C[N+](C)(C)[BH2-]C(=O)[O-].C[N+](C)(C)[BH2-]C(=O)[O-].C[N+](C)(C)[BH2-]C(=O)[O-].C[N+](C)(C)[BH2-]C(=O)[O-].C[N+](C)(C)[BH2-]C(=O)[O-].C[N+](C)(C)[BH2-]C(=O)[O-].O=[N+]([O-])[O-].[Fe+3].[Fe+3].[Fe+3].[O-2] numeric_readout=5.25
compound="C[NH+](C)[BH2-]C(=O)O [Compound 23, Dimethylamine-carboxyborane, sodium salt]" numeric_readout=5.45
compound=CC#N.CO.C[N+](C)(C)[BH2-]C(=O)[O-].C[N+](C)(C)[BH2-]C(=O)[O-].C[N+](C)(C)[BH2-]C(=O)[O-].C[N+](C)(C)[BH2-]C(=O)[O-].C[N+](C)(C)[BH2-]C(=O)[O-].C[N+](C)(C)[BH2-]C(=O)[O-].O.O=[N+]([O-])[O-].[Cr+3].[Cr+3].[Cr+3].[O-2] numeric_readout=5.16
compound=C[N+](C)(C)[BH2-]C(=O)[O-].C[N+](C)(C)[BH2-]C(=O)[O-].NCCN.NCCN.[Cl-].[Co+3] numeric_readout=5.37

QUERY: Can you share its pIC50? I mean this compound: CC(C)=O.C[N+](C)(C)[BH2-]C(=O)[O-].O=[N+]([O-])[O-].[Ca+2]
RESULT: 5.12

QUERY: So what's the measured pIC50 for this one? C[N+](C)(C)[BH2-]C(=O)[O-].C[N+](C)(C)[BH2-]C(=O)[O-].C[N+](C)(C)[BH2-]C(=O)[O-].C[N+](C)(C)[BH2-]C(=O)[O-].C[N+](C)(C)[BH2-]C(=O)[O-].C[N+](C)(C)[BH2-]C(=O)[O-].O.O.O.[Cl-].[Fe+3].[Fe+3].[Fe+3].[O-2]
RESULT: 5.38

QUERY: Fill in the blank: the reported pIC50 of C[N+](C)(C)[BH2-]C(=O)O [Compound 22, sodium salt] is ____.
RESULT: 5.45

----------
- target-entity: Cathepsin D (Mus musculus, UniProt P18242)
- Construct: azocasein assay pH 5.0
- Sequence (P18242 65-410): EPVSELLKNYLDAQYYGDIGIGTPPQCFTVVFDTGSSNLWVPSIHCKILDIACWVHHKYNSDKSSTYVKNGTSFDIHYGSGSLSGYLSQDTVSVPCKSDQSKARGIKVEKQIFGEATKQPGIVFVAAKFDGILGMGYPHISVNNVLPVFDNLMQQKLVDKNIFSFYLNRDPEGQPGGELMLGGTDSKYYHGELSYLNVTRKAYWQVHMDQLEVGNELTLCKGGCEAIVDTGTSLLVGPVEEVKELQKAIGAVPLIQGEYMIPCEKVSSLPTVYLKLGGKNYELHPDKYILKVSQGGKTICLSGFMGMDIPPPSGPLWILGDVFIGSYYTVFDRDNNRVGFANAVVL
- test-protocol: Mouse macrophage cathepsin D activity
- Type: cell-based
- measurement-conditions: Table XVII; mouse macrophage, 60 min incubation; read-out: Cathepsin D pH 5.0 IC50
- Text: 3. Mouse macrophages J774A.1 BALB/c 2. Acid Cathepsin D -azocasein-pH 5.0, hydrolytic azo-peptide produce 366 nm.
Counter-ions that a name gives are not always drawn.
quantity-measured: pIC50
// scale note: pIC50 = -log10(conc_M); give the bare number

Some entries whose results are on file:
compound=CC#N.CO.CO.CO.C[N+](C)(C)[BH2-]C(=O)[O-].C[N+](C)(C)[BH2-]C(=O)[O-].C[N+](C)(C)[BH2-]C(=O)[O-].C[N+](C)(C)[BH2-]C(=O)[O-].C[N+](C)(C)[BH2-]C(=O)[O-].C[N+](C)(C)[BH2-]C(=O)[O-].O=[N+]([O-])[O-].[Fe+3].[Fe+3].[Fe+3].[O-2] target_entity="Cathepsin D (Mus musculus, UniProt P18242)" numeric_readout=5.55
compound="C[NH+](C)[BH2-]C(=O)O [Compound 23, Dimethylamine-carboxyborane, sodium salt]" target_entity="Cathepsin D (Mus musculus, UniProt P18242)" numeric_readout=5.64

# next compound below
QUERY: Bench note: what pIC50 did BC(=O)O show?
RESULT: 5.34

----------
- target-entity: 5'-lipoxygenase (Mus musculus, UniProt P48999)
- Construct: Cf1 male mouse hepatic 10% homogenates; from tissue; host or cells: CF1 male mouse liver, 10% homogenate
- Sequence (P48999 whole entry): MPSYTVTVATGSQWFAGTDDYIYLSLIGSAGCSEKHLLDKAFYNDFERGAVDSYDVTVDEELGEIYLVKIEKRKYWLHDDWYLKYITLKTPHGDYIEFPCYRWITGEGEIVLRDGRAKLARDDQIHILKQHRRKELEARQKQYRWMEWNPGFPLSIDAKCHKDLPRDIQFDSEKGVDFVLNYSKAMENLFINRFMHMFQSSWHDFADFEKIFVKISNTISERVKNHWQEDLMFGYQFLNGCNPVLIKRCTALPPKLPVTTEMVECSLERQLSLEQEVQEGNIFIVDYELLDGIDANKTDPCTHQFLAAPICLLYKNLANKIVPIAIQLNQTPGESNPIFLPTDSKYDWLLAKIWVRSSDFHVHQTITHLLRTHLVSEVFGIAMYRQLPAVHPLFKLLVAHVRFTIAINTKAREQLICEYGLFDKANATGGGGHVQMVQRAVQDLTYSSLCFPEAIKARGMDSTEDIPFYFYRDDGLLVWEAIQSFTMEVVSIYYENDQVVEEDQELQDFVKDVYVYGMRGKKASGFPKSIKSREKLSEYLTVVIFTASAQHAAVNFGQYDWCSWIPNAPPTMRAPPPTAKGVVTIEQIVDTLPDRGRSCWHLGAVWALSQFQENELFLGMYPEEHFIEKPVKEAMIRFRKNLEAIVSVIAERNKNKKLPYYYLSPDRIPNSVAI
- test-protocol: Mouse hepatic 5'-lipoxygenase activity
- Format: biochemical
- measurement-conditions: Table VI; mouse hepatic, 60 min incubation; read-out: 5'-lipoxygenase IC50
quantity-measured: IC50 (µM)
Return type: number; implicit unit µM.

QUERY: Which value of IC50 has been reported for CCNC(=O)[BH2-][NH+](C)C [Compound 9, Dimethylamine-N-ethylcarbamoylborane] in the records?
RESULT: 43.5

QUERY: Look at this compound and give its reported IC50. CCCCCCCCCCCCCCCC[N+](C)(C)[BH2-]C(=O)O [Compound 7, N,N-Dimethylhexadecylamine-carboxyborane]
RESULT: 55.8

QUERY: Looking for the measured IC50 of [BH3-][NH+]1CCOCC1 [Compound 1, Morpholine-borane] , can you help?
RESULT: 66.9

----------
- Test system: Aryl sulphatase
- test-protocol: Human osteoporosis fibroblasts aryl sulphatase activity
- Assay type: cell-based
- measurement-conditions: Table X; human osteoporosis fibroblasts; read-out: Aryl Sulphatase IC50
quantity-measured: pIC50
FYI, pIC50 means -log10 of a concentration in mol per litre.

Here's what some known entries look like.
compound="CCCCCCCCCCCCCCCC[N+](C)(C)[BH2-]C(=O)O [Compound 7, N,N-Dimethylhexadecylamine-carboxyborane]" target_entity="Aryl sulphatase" numeric_readout=5.05
compound="BC(=O)O [Compound 13]" target_entity="Aryl sulphatase" numeric_readout=5.09

Proceed to the following item.
QUERY: Look up pIC50 for this compound: CCNC(=O)[BH2-][NH+](C)C [Compound 9, Dimethylamine-N-ethylcarbamoylborane]
RESULT: 5.12

----------
- System: Prostaglandin cyclooxygenase
- test-protocol: Human osteoporosis fibroblasts prostaglandin cyclooxygenase activity
- Type: cell-based
- measurement-conditions: read-out: Prostaglandin Cyclooxygense IC50, Table XI, 60 min incubation
In this section we review reported IC50 values for a set of molecules.
Report the figure in µM without appending any unit label.

Example entries begin here.
molecule="C[NH+](C)[BH2-]C#N [Compound 10, Dimethylamine-cyanoborane]" numeric_readout=5.58
molecule="[BH3-][NH+]1CCOCC1 [Compound 1, Morpholine-borane]" numeric_readout=3.41
molecule="C[N+](C)(C)[BH2-]C#N [Compound 2, Trimethylamine-cyanoborane]" numeric_readout=4.26

Now consider a different molecule.
QUERY: Can you share its IC50? I mean this molecule: C[B-](C#N)(C#N)[N+](C)(C)C [Compound 16, Trimethylamine-methyldicyanoborane]
RESULT: 9.29

----------
- Tested on: Cathepsin
- test-protocol: Human leukocyte cathepsin
- Assay type: cell-based
- measurement-conditions: Table XIX; read-out: Human Leukocyte IC50 (head gives no enzyme; beside Cathepsin D)
quantity-measured: IC50

Known results for molecules:
structure_smiles=N#C[BH2-][n+]1c(N)ccn([C@H]2C[C@H](O)[C@@H](CO)O2)c1=O target_entity=Cathepsin result="8.72 µM"
structure_smiles=CC(C)[Si](OC[C@H]1O[C@@H](n2ccc(N)[n+]([BH2-]C#N)c2=O)C[C@@H]1O[Si](C(C)C)(C(C)C)C(C)C)(C(C)C)C(C)C target_entity=Cathepsin result="6.12 µM"
structure_smiles=CC(C)[Si](OC[C@@H]1CC[C@H](n2ccc(N)[n+]([BH2-]C#N)c2=O)O1)(C(C)C)C(C)C target_entity=Cathepsin result="7.31 µM"
structure_smiles=CC(C)[Si](OC[C@H]1O[C@@H](n2cnc3c(=O)[nH]cnc32)C[C@@H]1O[Si](C(C)C)(C(C)C)C(C)C)(C(C)C)C(C)C target_entity=Cathepsin result="31.8 µM"
structure_smiles=CC(C)[Si](OC[C@H]1O[C@@H](n2cnc3c(N)ncnc32)C[C@@H]1O[Si](C(C)C)(C(C)C)C(C)C)(C(C)C)C(C)C target_entity=Cathepsin result="33.4 µM"

QUERY: So what's the measured IC50 for this one? CC(C)[Si](OC[C@H]1O[C@@H](n2ccc(N)nc2=O)C[C@@H]1O[Si](C(C)C)(C(C)C)C(C)C)(C(C)C)C(C)C
RESULT: 13.9 µM
